Test system: Diabrotica balteata
Test: Diabrotica balteata (corn root worm) artificial diet test
Type: in vivo
Conditions: 120 h, application rate 200 ppm (concentration in well 18 ppm), L2 larvae, larval mortality and growth regulation after 5 days
Reported pest or weed control at 200 ppm by item:

# example entries with known answers
Prompt: Any idea what its pest or weed control at 200 ppm is? The compound is Cc1cc(C#N)ccc1C(=O)Nc1cc(C(=O)Nc2c(C)cc(C(F)(C(F)(F)F)C(F)(F)C(F)(F)F)cc2C)ccc1C#N (centres unmarked)
Response: ≥ 80%

Prompt: Record request: pest or weed control at 200 ppm value, item Cc1cc(C#N)ccc1C(=O)Nc1cc(C(=O)Nc2c(Cl)cc(C(F)(C(F)(F)F)C(F)(F)F)cc2Br)ccc1C#N
Response: ≥ 80%

Further cases:
Prompt: Look up pest or weed control at 200 ppm: Cc1cc(C#N)ccc1C(=O)Nc1c(C#N)ccc(C(=O)Nc2c(Cl)cc(C(F)(C(F)(F)F)C(F)(F)C(F)(F)F)cc2Cl)c1F (centres unmarked)
Response: ≥ 80%

Prompt: Record request: pest or weed control at 200 ppm value, item Cc1cc(C#N)ccc1C(=O)Nc1cc(C(=O)Nc2c(Cl)cc(C(OC(=O)c3ccccc3)(C(F)(F)F)C(F)(F)F)cc2Br)ccc1C#N
Response: ≥ 80%

Prompt: # input compound: CCc1cc(C(F)(C(F)(F)F)C(F)(F)C(F)(F)F)cc(C)c1NC(=O)c1ccc(C#N)c(NC(=O)c2ccc(C#N)cc2C)c1 (centres unmarked) ; wanted: its pest or weed control at 200 ppm
Response: ≥ 80%

* * *

Tested on: Tetranychus urticae
Experiment: Tetranychus urticae (two-spotted spider mite) bean leaf disc spray test
Assay type: in vivo
Conditions: foliar, 192 h, application rate 200 ppm, bean leaf discs, mite populations of mixed ages, egg, larval and adult mortality 8 days later, read-out: control of Tetranychus urticae
Collected pest or weed control at 200 ppm values appear next to each entry.

As a guide, the following entries are already answered.
Prompt: Can you look up the measured pest or weed control at 200 ppm of Cc1cc(C#N)ccc1C(=O)Nc1cc(C(=O)Nc2c(Cl)cc(C(F)(C(F)(F)F)C(F)(F)F)c(F)c2Cl)ccc1C#N for me?
Response: ≥ 80%

Prompt: I have this compound here, CCc1cc(C(F)(C(F)(F)F)C(F)(F)C(F)(F)F)cc(C)c1NC(=O)c1ccc(C#N)c(NC(=O)c2ccc(C#N)cc2C)c1 (stereo not shown) , and I need its recorded pest or weed control at 200 ppm.
Response: ≥ 80%

Prompt: Field request: pest or weed control at 200 ppm | item: Cc1cc(C#N)ccc1C(=O)Nc1cc(C(=O)Nc2c(Cl)cc(C(F)(C(F)(F)F)C(F)(F)C(F)(F)F)cc2C#N)ccc1C#N (stereo not shown)
Response: ≥ 80%

Further cases:
Prompt: Consider the compound shown here: Cc1cc(C#N)ccc1C(=O)Nc1c(C#N)ccc(C(=O)Nc2c(Cl)cc(C(F)(C(F)(F)F)C(F)(F)C(F)(F)F)cc2Br)c1F (stereo not shown) What is its recorded pest or weed control at 200 ppm?
Response: ≥ 80%

Prompt: Could you share which pest or weed control at 200 ppm value was measured for CSc1cc(C(F)(C(F)(F)F)C(F)(F)C(F)(F)F)cc(Cl)c1NC(=O)c1ccc(C#N)c(NC(=O)c2ccc(C#N)cc2C)c1 (stereo not shown) ?
Response: ≥ 80%

Prompt: Report pest or weed control at 200 ppm for Cc1cc(C#N)ccc1C(=O)Nc1cc(C(=O)Nc2c(C)cc(C(F)(C(F)(F)F)C(F)(F)C(F)(F)F)cc2C)ccc1C#N (stereo not shown) please.
Response: ≥ 80%

Prompt: Endpoint output: pest or weed control at 200 ppm of Cc1cc(C#N)ccc1C(=O)Nc1cc(C(=O)Nc2c(Cl)cc(C(OC(=O)c3ccccc3)(C(F)(F)F)C(F)(F)F)cc2Br)ccc1C#N . Value?
Response: ≥ 80%
